experiment: self-splicing fitness, log relative to wild type (ln ratio); higher = more splicing; Tetrahymena group I intron in knt gene, E. coli kanamycin selection, DiMSum; sequences stand for … in CUCUCU…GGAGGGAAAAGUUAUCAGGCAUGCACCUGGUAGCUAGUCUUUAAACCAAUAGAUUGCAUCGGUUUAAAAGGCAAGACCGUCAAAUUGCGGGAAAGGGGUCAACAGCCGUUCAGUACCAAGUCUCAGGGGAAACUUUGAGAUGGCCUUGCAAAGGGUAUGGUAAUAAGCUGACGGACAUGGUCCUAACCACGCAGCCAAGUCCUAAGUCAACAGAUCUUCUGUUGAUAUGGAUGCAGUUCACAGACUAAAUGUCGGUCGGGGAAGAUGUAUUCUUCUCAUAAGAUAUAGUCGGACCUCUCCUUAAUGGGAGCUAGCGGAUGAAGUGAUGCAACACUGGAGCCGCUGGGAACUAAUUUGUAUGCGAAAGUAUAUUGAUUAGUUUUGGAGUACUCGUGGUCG; conditions: 37 °C;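 note: selection with 25 µg/mL kanamycin versus none on LB agar overnight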
quantity measured: self-splicing fitness (ln)
Enter a number only.

sequence chain	self-splicing fitness (ln)
UGGGAGCAAUAUUACGUCGU	-2
UCUAAGCAAUAUUACGUAUU	-2.16

Prompt: Item ACUCAGCAAUAUUACGUAGA has what recorded self-splicing fitness (ln)?
Completion: -0.457

Prompt: Try this sequence too: GGAGAGCAAUAUUACGAAUU
Completion: -2.27

Prompt: Same again, this time with AGUAAGCAAUAUUACGGCCA
Completion: -0.74

* * *

experiment: self-splicing fitness, log relative to wild type (ln ratio); higher = more splicing; Tetrahymena group I intron in knt gene, E. coli kanamycin selection, DiMSum; sequences stand for … in CUCUCU…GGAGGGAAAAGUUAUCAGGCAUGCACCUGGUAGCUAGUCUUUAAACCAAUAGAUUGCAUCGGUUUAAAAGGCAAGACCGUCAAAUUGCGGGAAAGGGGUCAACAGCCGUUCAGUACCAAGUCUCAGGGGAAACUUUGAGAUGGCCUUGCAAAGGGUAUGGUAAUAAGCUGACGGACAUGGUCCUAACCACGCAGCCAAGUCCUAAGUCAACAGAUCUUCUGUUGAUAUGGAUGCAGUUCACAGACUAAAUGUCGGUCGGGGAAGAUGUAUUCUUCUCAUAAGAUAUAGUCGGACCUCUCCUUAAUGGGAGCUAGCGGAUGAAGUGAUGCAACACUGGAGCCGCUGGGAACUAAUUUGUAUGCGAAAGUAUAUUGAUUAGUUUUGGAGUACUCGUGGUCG; conditions: 30 °C
quantity measured: self-splicing fitness (ln)
Returns: the value as a bare number; no unit string appended.

sequence chain	quantity measured	number
AGCCAGCAAUAUUACGACGA	self-splicing fitness (ln)	-1.97
CCUGAGCAAUAUUACGACAC	self-splicing fitness (ln)	-2.49

Here is another sequence to look at.
Prompt: Reported self-splicing fitness (ln) for CUCCAGCAAUAUUACGCUAU : what is it?
Completion: -3.89

* * *

Each entry below lists one item and its recorded self-splicing fitness (ln) value.
assay: self-splicing fitness, log relative to wild type (ln ratio); higher = more splicing; Tetrahymena group I intron in knt gene, E. coli kanamycin selection, DiMSum; sequences stand for … in CUCUCU…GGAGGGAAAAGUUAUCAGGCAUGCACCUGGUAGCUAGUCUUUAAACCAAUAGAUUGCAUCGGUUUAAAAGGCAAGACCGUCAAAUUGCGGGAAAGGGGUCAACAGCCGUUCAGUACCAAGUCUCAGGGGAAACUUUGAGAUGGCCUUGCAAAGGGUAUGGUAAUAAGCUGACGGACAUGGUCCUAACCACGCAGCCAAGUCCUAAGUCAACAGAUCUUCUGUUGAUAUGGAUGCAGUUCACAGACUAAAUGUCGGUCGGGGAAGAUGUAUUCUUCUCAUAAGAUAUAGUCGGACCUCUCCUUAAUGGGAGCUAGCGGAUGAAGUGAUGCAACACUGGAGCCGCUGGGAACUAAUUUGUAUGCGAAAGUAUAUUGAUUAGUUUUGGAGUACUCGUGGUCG; conditions: 30 °C
Respond numerically, and do not add a unit to the figure.

sequence chain	self-splicing fitness (ln)
UGGGAGCAAUAUUACGGAGC	-3.98
UGUUAGCAAUAUUACGAGAA	-2.27
ACAAAGCAAUAUUACGAAGU	-2.04
CUAAAGCAAUAUUACGUCCU	-3.29
GAAUAGCAAUAUUACGAUAG	-0.707

Prompt: What value of self-splicing fitness (ln) has been recorded for this entry: UCUCAGCAAUAUUACGCAAG
Completion: -4.47

* * *

assay: self-splicing fitness, log relative to wild type (ln ratio); higher = more splicing; Tetrahymena group I intron in knt gene, E. coli kanamycin selection, DiMSum; sequences stand for … in CUCUCU…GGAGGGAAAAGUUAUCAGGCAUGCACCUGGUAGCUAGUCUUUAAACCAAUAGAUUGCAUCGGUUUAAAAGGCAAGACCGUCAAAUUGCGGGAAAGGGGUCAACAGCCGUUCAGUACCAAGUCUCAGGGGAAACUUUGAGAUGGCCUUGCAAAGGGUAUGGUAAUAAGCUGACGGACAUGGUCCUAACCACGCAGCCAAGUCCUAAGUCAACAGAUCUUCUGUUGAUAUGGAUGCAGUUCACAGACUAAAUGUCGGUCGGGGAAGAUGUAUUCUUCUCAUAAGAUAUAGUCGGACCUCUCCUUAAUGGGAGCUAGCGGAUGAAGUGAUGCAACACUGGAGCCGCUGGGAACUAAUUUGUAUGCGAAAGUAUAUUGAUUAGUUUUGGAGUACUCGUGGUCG; details: 30 °C
Reported values of self-splicing fitness (ln) for individual entries
Enter a number only.

sequence chain	number
GACUAGCAAUAUUACGGUAC	-2.1
CUUAAGCAAUAUUACGAUCC	-3.31

Prompt: I have this sequence here, UCAAAGCAAUAUUACGAUGU , and I need its recorded self-splicing fitness (ln).
Completion: -1.09

Prompt: Param item: AUUCAGCAAUAUUACGGUUA
Completion: -0.544

Prompt: What do you have for AACCAGCAAUAUUACGUGUU ?
Completion: -3.59

Prompt: Try UGAUAGCAAUAUUACGAUAU next.
Completion: -2.94

Prompt: Lookup GCAAAGCAAUAUUACGCAGC
Completion: -0.0889

Prompt: Try AUAGAGCAAUAUUACGACAU next.
Completion: 0.275

Prompt: Also, CUCAAGCAAUAUUACGAAUU please.
Completion: -4.18

Prompt: Can you handle GACUAGCAAUAUUACGUUGC next?
Completion: -2.56

Prompt: Okay, and CUGAAGCAAUAUUACGUCAU ?
Completion: -1.03

Prompt: How about this sequence: GGCCAGCAAUAUUACGACUG
Completion: -0.744

Prompt: Quick one: AUUAAGCAAUAUUACGGGGA
Completion: -3.62

Prompt: Can you check GGCAAGCAAUAUUACGCAAC next?
Completion: -2.24

* * *

experiment: self-splicing fitness, log relative to wild type (ln ratio); higher = more splicing; Tetrahymena group I intron in knt gene, E. coli kanamycin selection, DiMSum; sequences stand for … in CUCUCU…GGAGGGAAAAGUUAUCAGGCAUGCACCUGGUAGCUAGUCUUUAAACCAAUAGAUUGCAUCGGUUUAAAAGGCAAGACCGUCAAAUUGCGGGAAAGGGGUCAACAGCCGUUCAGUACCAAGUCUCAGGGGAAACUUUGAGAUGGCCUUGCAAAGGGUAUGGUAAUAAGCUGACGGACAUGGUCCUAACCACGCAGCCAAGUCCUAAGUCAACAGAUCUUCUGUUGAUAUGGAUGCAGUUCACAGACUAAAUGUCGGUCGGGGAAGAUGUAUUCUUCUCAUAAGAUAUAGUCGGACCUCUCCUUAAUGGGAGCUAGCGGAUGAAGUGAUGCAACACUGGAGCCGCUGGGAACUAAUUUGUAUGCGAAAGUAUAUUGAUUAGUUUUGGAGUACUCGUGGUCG; conditions: 30 °C
quantity measured: self-splicing fitness (ln)
API doc: respond with a numeric literal and nothing else, no unit.

sequence chain	self-splicing fitness (ln)
CUCCAGCAAUAUUACGGGUU	-3.83

Prompt: Given the entry AGUAAGCAAUAUUACGGCAU , report its measured self-splicing fitness (ln).
Completion: -0.486

Prompt: Field entry: CGCGAGCAAUAUUACGUUGU
Completion: -3.93

* * *

Reported values of self-splicing fitness (ln) for individual entries
assay: self-splicing fitness, log relative to wild type (ln ratio); higher = more splicing; Tetrahymena group I intron in knt gene, E. coli kanamycin selection, DiMSum; sequences stand for … in CUCUCU…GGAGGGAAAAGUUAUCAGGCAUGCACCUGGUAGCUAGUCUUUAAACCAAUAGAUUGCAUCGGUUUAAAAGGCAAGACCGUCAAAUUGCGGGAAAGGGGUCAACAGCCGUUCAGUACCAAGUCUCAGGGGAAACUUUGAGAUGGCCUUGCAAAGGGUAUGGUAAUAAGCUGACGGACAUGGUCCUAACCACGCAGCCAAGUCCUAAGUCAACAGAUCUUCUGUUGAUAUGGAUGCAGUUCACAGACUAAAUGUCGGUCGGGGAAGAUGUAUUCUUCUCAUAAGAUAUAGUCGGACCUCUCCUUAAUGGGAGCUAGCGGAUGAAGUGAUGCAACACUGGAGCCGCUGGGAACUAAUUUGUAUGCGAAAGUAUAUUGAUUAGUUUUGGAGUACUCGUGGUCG; details: 30 °C
Please respond with just the number, no unit label.

Solved cases below.
sequence chain	self-splicing fitness (ln)
CCCUAGCAAUAUUACGAGGG	-4.35
UGCAAGCAAUAUUACGACGU	-1.76
UAGGAGCAAUAUUACGUCUA	-0.313
GGGCAGCAAUAUUACGUAAA	-0.819
GCCAAGCAAUAUUACGGACG	-1.6
AUUCAGCAAUAUUACGAGUU	-2.76
AAAGAGCAAUAUUACGGCUA	-1.28
AGAAAGCAAUAUUACGACGU	0.0909
AGCUAGCAAUAUUACGCAUA	-2.4
UCACAGCAAUAUUACGGGUG	-2.37

Prompt: Name the recorded self-splicing fitness (ln) for CGUUAGCAAUAUUACGCGAC .
Completion: -3.76

Prompt: Next entry: UGUAAGCAAUAUUACGACAU
Completion: -1.44
